target: IDO1 (Homo sapiens (Human), UniProt P14902); test: IDO1 Enzyme Assay; conditions: read-out: IDO1 Enzyme Assay, IC50; HIS-tagged recombinant IDO1, 40 nM
Sequence (P14902 whole entry): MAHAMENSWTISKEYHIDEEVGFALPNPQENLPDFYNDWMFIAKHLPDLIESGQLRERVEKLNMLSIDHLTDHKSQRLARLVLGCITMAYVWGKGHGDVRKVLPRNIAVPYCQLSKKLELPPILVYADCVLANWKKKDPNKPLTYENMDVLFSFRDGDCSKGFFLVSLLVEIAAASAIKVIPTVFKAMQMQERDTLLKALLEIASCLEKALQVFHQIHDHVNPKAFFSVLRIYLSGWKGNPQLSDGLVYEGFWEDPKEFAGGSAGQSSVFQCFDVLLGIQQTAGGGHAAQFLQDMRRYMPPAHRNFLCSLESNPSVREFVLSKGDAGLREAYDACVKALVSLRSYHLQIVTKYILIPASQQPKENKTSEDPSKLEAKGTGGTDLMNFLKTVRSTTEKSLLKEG
METRIC_NAME: IC50 (nM)

Worked cases, IC50 given:
C[C@@H](O)CNC(=O)CSc1nonc1/C(=N/O)Nc1ccc(F)c(Br)c1: 22.4
O=P(O)(O)CCSc1nonc1/C(=N/O)Nc1ccc(F)c(Br)c1: 107
Cn1c(CSc2nonc2/C(=N/O)Nc2ccc(F)c(Cl)c2)n[nH]c1=O: 71.5

A. CCOC(=O)CCSc1nonc1/C(=N/O)Nc1ccc(F)c(Br)c1
B. O=C(CSc1nonc1/C(=N/O)Nc1ccc(F)c(Br)c1)NC[C@H](O)CO
C. NS(=O)(=O)NCCOc1nonc1/C(=N/O)Nc1ccc(F)c(Br)c1
Ascending sort, IC50. Please list the labels in the order you were asked to rank them.
C, A, B

a. OCCCSc1nonc1/C(=N/O)Nc1ccc(F)c(Br)c1
b. O=c1c(NCCO)c(NCCSc2nonc2/C(=N/O)Nc2ccc(F)c(Br)c2)c1=O
c. NCCOc1nonc1/C(=N/O)Nc1ccc(F)c(Br)c1
d. NCCSc1nonc1/C(=N/O)Nc1ccc(F)c(Br)c1
Rank entries according to their IC50, from the largest number down. Lab note: record answer as labels in requested order.
c, a, d, b

A. OC[C@H](O)CSc1nonc1/C(=N/O)Nc1ccc(F)c(Cl)c1
B. O=c1[nH]nc(CSc2nonc2/C(=N/O)Nc2ccc(F)c(Br)c2)cc1C(F)(F)F
C. CC(C)(CO)NC(=O)CSc1nonc1/C(=N/O)Nc1ccc(F)c(Br)c1
D. CC(=O)N[C@@H](C)CSc1nonc1/C(=N/O)Nc1ccc(F)c(C#N)c1
Rank entries according to their IC50, from the largest number down. # answer = labels listed in requested order
D, B, A, C
(D: 196 nM, B: 99.5 nM, A: 68.4 nM, C: 29.8 nM)

====

molecular target: IDO1 (Homo sapiens (Human), UniProt P14902); test: IDO1 Enzyme Assay; details: read-out: IDO1 Enzyme Assay, IC50; HIS-tagged recombinant IDO1, 40 nM
pIC50: −log10 of the molar value.
METRIC_NAME: pIC50

Below: 7 molecules and their reported pIC50.
OCCCCSc1nonc1/C(=N/O)Nc1ccc(F)c(Br)c1 [Example 20]: 7.17
O=c1c(NCCSc2nonc2/C(=N/O)Nc2ccc(F)c(Br)c2)c(N2CCCCC2)c1=O [Example 93]: 7.41
CCCSc1nonc1/C(=N/O)Nc1ccc(F)c(Br)c1 [Example 23]: 6.73
N#Cc1cc(N/C(=N\O)c2nonc2SC[C@@H]2CCC(=O)N2)ccc1F [Example 149]: 6.96
CNC(=O)NCCSc1nonc1/C(=N/O)Nc1ccc(F)c(Br)c1 [Example 45]: 7.65
O=C(COc1nonc1/C(=N/O)Nc1ccc(F)c(Br)c1)NCCO [Example 6]: 7.36
Cn1c(CSc2nonc2/C(=N/O)Nc2ccc(F)c(Br)c2)n[nH]c1=O [Example 98]: 7.42

I. CCNc1c(NCCSc2nonc2/C(=N/O)Nc2ccc(F)c(Br)c2)c(=O)c1=O [Example 55]
II. N#Cc1cc(N/C(=N\O)c2nonc2SCC(=O)NC2COC2)ccc1F [Example 186]
For I and II , which recorded pIC50 is lower? Please identify the chosen entry by its label.
II
(II: 6.75, I: 7.69)

====

molecular target: IDO1 (Homo sapiens (Human), UniProt P14902); test: IDO1 Enzyme Assay; conditions: read-out: IDO1 Enzyme Assay, IC50; HIS-tagged recombinant IDO1, 40 nM
pIC50: −log10 of the molar value.
METRIC_NAME: pIC50

COC(=O)CNP(=O)(CCSc1nonc1/C(=N/O)Nc1ccc(F)c(Br)c1)NCC(=O)OC: 7.74

1. COC(=O)CNP(=O)(CSc1nonc1/C(=N/O)Nc1ccc(F)c(Br)c1)NCC(=O)OC
2. O=C(CSc1nonc1/C(=N/O)Nc1ccc(F)c(Br)c1)N[C@H]1CCOC[C@H]1O
3. CCSc1nonc1/C(=N/O)Nc1ccc(F)c(Br)c1
Parameters: sort_field (pIC50), sort_dir (desc). // respond by listing labels in the order requested
1, 2, 3

====

Molecular target: IDO1 (Homo sapiens (Human))
Test: IDO1 Cellular Assay in Frozen HEK293 Cells Transiently Transfected with Human IDO1
Type: cell-based
Conditions: read-out: IDO1 HEK293 Cell Assay, IC50
Protocol: IDO1 Cellular Assay in Frozen HEK293 Cells Transiently Transfected with Human IDO1 HEK293 cells were cultured in complete HEK293 culture medium (90% DMEM, 10% heat-inactivated fetal bovine serum). […] HEK293/IDO1 and HEK293 WT cells were dispensed to the respective wells of 384-well assay plates containing the compounds. […] The resulting fluorescence was measured in a Spectramax plate reader (Molecular Devices) with a 400 nm excitation filter and a 510 nm emission filter.
METRIC_NAME: pIC50
Convention used: pIC50 is expressed as -log10 of the molar concentration.

Field: example entries. Status: answers known.
O=P(O)(CCCSc1nonc1/C(=N/O)Nc1ccc(F)c(Br)c1)Oc1ccccc1 [Example 118]: 5.09
O=P(CCSc1nonc1/C(=N/O)Nc1ccc(F)c(Br)c1)(Oc1ccccc1)Oc1ccccc1 [Example 101]: 5.65
CN(C)P(=O)(CCSc1nonc1/C(=N/O)Nc1ccc(F)c(Br)c1)N(C)C [Example 139]: 6.26

What value of pIC50 has been recorded for this entry: CNC(=O)NCCSc1nonc1/C(=N/O)Nc1ccc(F)c(Br)c1 [Example 45]
7.61

And the next one, CNP(=O)(CCSc1nonc1/C(=N/O)Nc1ccc(F)c(Br)c1)NC [Example 103] ?
7.07

====

target: IDO1 (Homo sapiens (Human)); assay: IDO1 Cellular Assay in Hela Cells Stimulated with IFNγ; assay type: cell-based; details: Hela cells stimulated with IFNγ 100 ng/mL; read-out: IDO1 HELA Cell Assay, IC50
pIC50: −log10 of the molar value.
METRIC_NAME: pIC50

// known answers, use as guide
N#Cc1cc(N/C(=N\O)c2nonc2SCCNC(=O)C2CC2)ccc1F: 6.74
ON=C(Nc1ccc(F)c(Br)c1)c1nonc1SCCn1ccnc1: 7.36

I. N#Cc1cc(N/C(=N\O)c2nonc2SCCNC(=O)[C@H]2CC2(F)F)ccc1F
II. O=c1[nH]nc(CSc2nonc2/C(=N/O)Nc2ccc(F)c(Br)c2)[nH]1
Please indicate which item has the smaller measured pIC50: I versus II Please reply using the label of the selected record.
I

====

biological target: IDO1 (Homo sapiens (Human), UniProt P14902); experiment: IDO1 Cellular Assay in Frozen HEK293 Cells Transiently Transfected with Human IDO1; assay type: cell-based; settings: HEK293 cells transiently transfected with human IDO1; read-out: IDO1 HEK293 Cell Assay, IC50
METRIC_NAME: IC50 (nM)

CCSc1nonc1/C(=N/O)Nc1ccc(F)c(Br)c1 [Example 24]: 133
CN1C(=O)NC[C@H]1CSc1nonc1/C(=N/O)Nc1ccc(F)c(Br)c1 [Example 121]: 45.8
OC[C@@H](O)CSc1nonc1/C(=N/O)Nc1ccc(F)c(C(F)(F)F)c1 [Example 165]: 130
CC(=O)NCCSc1nonc1/C(=N/O)Nc1ccc(F)c(C(F)F)c1 [Example 142]: 46.9
ON=C(Nc1ccc(F)c(Br)c1)c1nonc1SCc1ncon1 [Example 156]: 46.9
O/N=C(\Nc1ccc(F)c(Br)c1)c1nonc1SCCN1CCOCC1 [Example 126]: 52.9
OC[C@@H](O)CSc1nonc1/C(=N/O)Nc1ccc(F)c(C(F)F)c1 [Example 168]: 55.1

I. O=C1CC[C@H](CSc2nonc2/C(=N/O)Nc2ccc(F)c(Br)c2)N1 [Example 83]
II. ON=C(Nc1ccc(F)c(Br)c1)c1nonc1SCCN1CCNCC1 [Example 163]
Out of I and II , name the one with the higher IC50. # reply format: chosen label
II

====

target: IDO1 (Homo sapiens (Human)); experiment: IDO1 Cellular Assay in Hela Cells Stimulated with IFNγ; type: cell-based; settings: Hela cells stimulated with IFNγ 100 ng/mL; read-out: IDO1 HELA Cell Assay, IC50
pIC50: −log10 of the molar value.
METRIC_NAME: pIC50

Cc1cc(CSc2nonc2/C(=N/O)Nc2ccc(F)c(Br)c2)[nH]c(=O)c1: 7.09
CNC(=O)NCCSc1nonc1/C(=N/O)Nc1ccc(F)c(Br)c1: 7.32
CNC(=O)C1(CSc2nonc2/C(=N/O)Nc2ccc(F)c(Br)c2)CC1: 7.04
COC(=O)[C@@H](N)CSc1nonc1/C(=N/O)Nc1ccc(F)c(Br)c1: 6.19
COC(=O)C1(Sc2nonc2/C(=N/O)Nc2ccc(F)c(Br)c2)CCC1: 6.62

I. CN1CCOC(CSc2nonc2/C(=N/O)Nc2ccc(F)c(Br)c2)C1 (stereo not drawn)
II. CN1CCN(CCSc2nonc2C(=NO)Nc2ccc(F)c(Br)c2)CC1
III. CC(=O)NCCSc1nonc1/C(=N/O)Nc1ccc(F)c(C(F)(F)F)c1
Sort ascending by pIC50. Would you mind listing the labels in the order asked for?
II, I, III
